- TARGET_DESC: T1, cynomolgus TREM2-Fc (cynomolgus monkey, UniProt A0A2K5UY34 49-204)
- T1 construct: also called cyno TREM2; not shown: Fc part
- T1 sequence: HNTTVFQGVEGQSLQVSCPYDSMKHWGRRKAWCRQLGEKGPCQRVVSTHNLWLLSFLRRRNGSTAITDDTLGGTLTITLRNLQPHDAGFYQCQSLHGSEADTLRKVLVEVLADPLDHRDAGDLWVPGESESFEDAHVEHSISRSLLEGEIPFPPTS
- PROCEDURE_TEXT: SPR (Biacore T200), 37 C; TREM2-Fc on anti-human IgG1 Fc chip, Fab in solution
READOUT_TYPE: koff (s⁻¹)
Write down the numeric answer in s⁻¹ and omit the unit.

Below: 4 binders and their reported koff.
{"columns": ["BINDER", "UNIT_TEXT", "NUMERIC_READOUT"],
 "data": [
  ["Para.09 Fab with the 3.10C2 light chain (Fab, V domains shown, also called Para.09 (3.10C2)) VH: EVQLVETGGSLVQPGKSLRLTCATSGFPFSNVWLHWVRQSPEKHPEWVAHIKAKSDNYATYYAESVKGRFTISRDDSKSSVFLQMNSLKEEDTAIYYCTDILEYWGQGTLVTVSS VL: DTVLTQAPLSLSVTPGESASISCRSSKSLLGVRDITSLYWYLQKPGKSPQLLIYRMSNLASGVPDRFSGSGSETDFTLKISEVETEDVGVYYCAQFLRYPYTFGPGTKLELK", "s⁻¹", "7.8e-06"],
  ["Para.09 Fab with the 3.18E5 light chain (Fab, V domains shown, also called Para.09 (3.18E5)) VH: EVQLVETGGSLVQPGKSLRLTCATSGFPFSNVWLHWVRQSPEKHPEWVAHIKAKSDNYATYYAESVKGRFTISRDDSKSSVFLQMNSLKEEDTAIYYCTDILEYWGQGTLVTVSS VL: DTVLTQAPLSVSVTPGESASISCRSNKSLLGIRDITSLYWYLQKPGKSPQLLIYRMSNLASGVPDRFSGSGSETDFTLKISEVETEDVGVYYCAQFLRYPYTFGPGTKLELK", "s⁻¹", "8.9e-06"],
  ["Para.09 Fab with the 3.50G1 light chain (Fab, V domains shown, also called Para.09 (3.50G1)) VH: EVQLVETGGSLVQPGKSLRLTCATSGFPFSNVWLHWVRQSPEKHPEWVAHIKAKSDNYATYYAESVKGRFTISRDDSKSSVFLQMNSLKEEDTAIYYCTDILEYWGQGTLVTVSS VL: DTVLTQAPLSVSVTPGESASISCRSNKSLLGIRDITSLYWFLQKPGKSPQLLIYRMSNLASGVPDRFSGSGSETDFTLKISEVETEDVGVYYCAQFLRYPYTFGPGTKLELQ", "s⁻¹", "7.9e-06"],
  ["Para.09 Fab with the 3.27H7 light chain (Fab, V domains shown, Fab fragment; also called Para.09 (3.27H7); Para.09-L27H7) VH: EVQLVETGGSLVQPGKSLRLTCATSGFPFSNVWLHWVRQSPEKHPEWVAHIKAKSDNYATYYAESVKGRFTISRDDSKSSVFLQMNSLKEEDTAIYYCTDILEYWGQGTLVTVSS VL: DVVLTQAPLSVSVTPGESASISCRSSRSLLTSKGITSLYWYLQKPGMSPHLLIYRMSNLASGIPDRFSGSGSETDFTLKISEVEPEDVGVYYCAQFLVYPYTFGAGTKLELK", "s⁻¹", "1.2e-05"]
]}

Now turn to the next binder.
Query 3.10C2 Fab (Fab, V domains shown, also called 3.10C2 (3.10C2); Rat3.10C2) VH: EVQLVETGGSLVQPGKSLKLTCATSGFPFSNVWMHWVRQSPEKQLEWIAHIKAKSDNYATYYAESVKGRFTISRDDSKTSIYLQMNSLKEDDTAIYYCTGLDYWGQGVMVTVSS VL: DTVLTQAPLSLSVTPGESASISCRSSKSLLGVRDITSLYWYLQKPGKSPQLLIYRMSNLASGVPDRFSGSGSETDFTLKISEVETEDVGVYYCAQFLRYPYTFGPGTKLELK yields koff of 0.00015
